# target-system: D(2) dopamine receptor (Homo sapiens, UniProt P14416)
# Sequence (P14416 whole entry): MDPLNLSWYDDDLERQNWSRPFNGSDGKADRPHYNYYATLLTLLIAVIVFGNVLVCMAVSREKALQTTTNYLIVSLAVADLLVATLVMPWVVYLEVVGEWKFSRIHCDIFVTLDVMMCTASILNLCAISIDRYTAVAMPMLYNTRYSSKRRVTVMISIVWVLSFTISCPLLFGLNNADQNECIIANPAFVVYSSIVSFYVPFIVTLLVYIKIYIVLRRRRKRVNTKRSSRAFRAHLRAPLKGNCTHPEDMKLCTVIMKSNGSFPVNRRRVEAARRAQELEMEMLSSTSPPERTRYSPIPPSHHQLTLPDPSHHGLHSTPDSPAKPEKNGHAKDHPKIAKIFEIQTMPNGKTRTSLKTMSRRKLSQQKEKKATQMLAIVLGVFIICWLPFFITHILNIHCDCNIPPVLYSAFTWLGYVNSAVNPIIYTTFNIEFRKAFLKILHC
# assay-method-text: Agonist activity at human D2L receptor expressed in CHOK1 cells assessed as inhibition of forskolin-induced cAMP accumulation measured after 30 mins by Eu-cAMP tracer based TR-FRET assay relative to dopamine
# Type: cell-based
# conditions-used: 0.5 h
endpoint-label: Emax (%)

chem_smiles=Cc1cccc(NC(=O)CN2CCN(c3ncccn3)CC2)c1 target_system="D(2) dopamine receptor (Homo sapiens, UniProt P14416)" value_observed=54.4
chem_smiles=O=C(CN1CCN(c2ccccn2)CC1)Nc1cccnc1 target_system="D(2) dopamine receptor (Homo sapiens, UniProt P14416)" value_observed=38.6
chem_smiles=CCc1cccc(NC(=O)CN2CCN(c3ccccn3)CC2)c1 target_system="D(2) dopamine receptor (Homo sapiens, UniProt P14416)" value_observed=18.8
chem_smiles=Cc1cccc(NC(=O)CN2CCN(c3ccccn3)CC2)c1 target_system="D(2) dopamine receptor (Homo sapiens, UniProt P14416)" value_observed=19
chem_smiles=Cc1cccc(NC(=O)CCN2CCN(c3ccccn3)CC2)c1 target_system="D(2) dopamine receptor (Homo sapiens, UniProt P14416)" value_observed=79.7
chem_smiles=Cc1cccc(NC(=O)CCN2CCC(c3ccccn3)CC2)c1 target_system="D(2) dopamine receptor (Homo sapiens, UniProt P14416)" value_observed=83.1
